Reported normalized growth values are given for each entry in this list.
# protocol.details: chemical genetic growth profiling, strain panel (AID 1159580);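 also: tested at 20 µM; growth read once vehicle control cultures reached saturation at 30 °C; 1 = growth at the plate median or of vehicle wells; lower values mean less growth of the strain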
# measurement.conditions: S. cerevisiae deletion strains, growth OD, locus YOR329C, strain SCD5, active compounds read low
Screen size: about 5,500 compounds; about 2,000 (36%) were called active. Roughly 18% stayed inconclusive and do not appear here. This is one part of the list.
measured.property: normalized growth

1) Cc1cc(C(=O)O/N=C(/N)CSc2ncccc2C(F)(F)F)no1 ... 0.995
2) Cc1csc2ncnc(N/N=C\c3ccccc3Cl)c12 ... 0.96
3) O=C1Nc2ccccc2/C1=N/N=C\c1cc(Br)cc(Br)c1O ... 0.937
4) O=C(NNC(=O)c1csc(-c2cccs2)n1)c1ccc(C(F)(F)F)cc1 ... 0.959

Entry source: PubChem BioAssay AID1159580
